B1: TRIM15 (parent)
chain: QSSGKILLCPLCQEEEQAETPMAP

# Variants of: B1
# protocol.summary: protein stability index of a GFP-peptide fusion (GPS, HEK-293T) (PSI 1-6); higher = more stable;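 also: lentivirally expressed fusions sorted by FACS into six bins by GFP to DsRed ratio, PSI derived from sequencing read proportions per bin multiplied by bin number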
# condition.details: c terminus: a fixed tail appended
Measured protein stability index, listed per entry.
// return a plain number; no unit text

>>> df
    mut               observable  observed
0   G4H  protein stability index      2.96
1  P24L  protein stability index      3.09
2  E19Y  protein stability index      2.96
3   G4A  protein stability index      3.07
4  T20R  protein stability index      3.07

Request the reported protein stability index associated with "Q13H" 2.95

Attribution: the supplement of paper PMC10567573
